Test system: NCI-H322M multicellular tumor spheroids, viability (% test/control)
Experiment: Anticancer human tumor NCI-H322M cell line growth inhibition;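 also: spheroids exposed to compound for seven days before readout; 100% = DMSO vehicle control wells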
Conditions: second compound 0.0949 µM; first compound 0.3 µM; stronger effect = lower value
Measured Parameter: viability, T/C (%)
Provide the reading as a plain figure in %.

{"columns": ["Compound", "viability, T/C (%)"],
 "data": [
  ["CNCc1ccc(-c2cc(-c3nc(-c4ccc(S(=O)(=O)C(C)C)cc4)cnc3N)on2)cc1 + CC[C@@]1(O)C(=O)OCc2c1cc1n(c2=O)Cc2cc3c(CN(C)C)c(O)ccc3nc2-1", 74.2],
  ["O=C(c1cc(Cc2n[nH]c(=O)c3ccccc23)ccc1F)N1CCN(C(=O)C2CC2)CC1 + CC[C@@]1(O)C(=O)OCc2c1cc1n(c2=O)Cc2cc3c(CN(C)C)c(O)ccc3nc2-1", 57.6],
  ["Cc1sc2c(c1C)C(c1ccc(Cl)cc1)=NC(CC(=O)Nc1ccc(O)cc1)c1nnc(C)n1-2 (centres undefined) + CC[C@@]1(O)C(=O)OCc2c1cc1n(c2=O)Cc2cc3c(CN(C)C)c(O)ccc3nc2-1", 89.2]
]}

Now take the following compound into account.
Asked: Param item = Cn1ncnc1[C@H]1c2n[nH]c(=O)c3cc(F)cc(c23)N[C@@H]1c1ccc(F)cc1 + CC[C@@]1(O)C(=O)OCc2c1cc1n(c2=O)Cc2cc3c(CN(C)C)c(O)ccc3nc2-1 ; retrieve measured viability, T/C.
Given back: 51.5
